settings: Day 0; G10-G16 groups; single IP 400 mg/kg
reported endpoint: Weight change rate, Day 0
Quick note: number first, unit second.

// below: answered compounds
{"compound": "CCCCOC(=O)Nc1nc(=O)n([C@@H]2O[C@H](COC(=O)Cn3cnc([N+](=O)[O-])c3)C(O)C2(F)F)cc1I (stereo partly drawn) [Compound G12]", "Weight change rate, Day 0": "0.00%"}
{"compound": "CCCCOC(=O)Nc1nc(=O)n(C2OC(COC(=O)COc3nc(Cl)c(Cl)cc3Cl)C(O)C2(F)F)cc1Br (stereo not drawn) [Compound G16]", "Weight change rate, Day 0": "0.00%"}

Consider now this further compound.
Would you mind telling me what Weight change rate, Day 0 value was observed for CCCCOC(=O)Nc1nc(=O)n(C2OC(COC(=O)COc3nc(Cl)c(Cl)cc3Cl)C(O)C2(F)F)cc1-c1cn(Cc2ccccc2)nn1 (stereo not drawn) [Compound G15] ?
0.00%

###

conditions: Day 30; G10-G16 groups; single IP 400 mg/kg; Mean±SEM
reported endpoint: Weight of mice, Day 30 (g)
Write it as a number; the unit g goes unstated.

{"compound": "CCCCOC(=O)Nc1nc(=O)n([C@@H]2O[C@H](COC(=O)Cn3cnc([N+](=O)[O-])c3)C(O)C2(F)F)cc1I (stereo partly drawn)", "reported endpoint": "Weight of mice, Day 30", "unit of measurement": "g", "value measured": 20.93}

Would you mind telling me what Weight of mice, Day 30 value was observed for O=C(COc1nc(Cl)c(Cl)cc1Cl)OCC1OC(n2cc(-c3cn(Cc4ccccc4)nn3)c(NC(=O)OCc3ccc([N+](=O)[O-])cc3)nc2=O)C(F)(F)C1O (stereo not drawn) ?
23.30

Would you mind telling me what Weight of mice, Day 30 value was observed for CCCCOC(=O)Nc1nc(=O)n(C2OC(COC(=O)COc3nc(Cl)c(Cl)cc3Cl)C(O)C2(F)F)cc1I (stereo not drawn) ?
21.00

Would you mind telling me what Weight of mice, Day 30 value was observed for CCCCOC(=O)Nc1nc(=O)n(C2OC(COC(=O)COc3nc(Cl)c(Cl)cc3Cl)C(O)C2(F)F)cc1Br (stereo not drawn) ?
21.20

Would you mind telling me what Weight of mice, Day 30 value was observed for CCCCOC(=O)Nc1nc(=O)n(C2OC(COC(=O)COc3nc(Cl)c(Cl)cc3Cl)C(O)C2(F)F)cc1-c1cn(Cc2ccccc2)nn1 (stereo not drawn) ?
22.40

Would you mind telling me what Weight of mice, Day 30 value was observed for O=C(COc1nc(Cl)c(Cl)cc1Cl)OC[C@H]1O[C@@H](n2cc(Br)c(NC(=O)OCc3ccccc3)nc2=O)C(F)(F)C1O (stereo partly drawn) ?
19.55

###

system: HCT-116 colon cancer xenografts; test: Tumor growth inhibition of HCT-116 colon cancer xenografts in tumor-bearing nude mice (tumor volume, TGI %, RTV, T/C %); assay type: in vivo, Balb/c Nude mice; details: Day 8; G3-G9 groups; single IP dose
// reported Day 8 (TGI %) for each item listed
Write it as a number; the unit % goes unstated.

// below: answered compounds
{"substance smiles": "CC(C)(C)OC(=O)Nc1ccn([C@@H]2O[C@H](CO)[C@@H](O)C2(F)F)c(=O)n1", "unit of measurement": "%", "Day 8 (TGI %)": 58.10}
{"substance smiles": "O=C(Nc1ccn([C@@H]2O[C@H](CO)[C@@H](O)C2(F)F)c(=O)n1)OCc1ccc([N+](=O)[O-])cc1", "unit of measurement": "%", "Day 8 (TGI %)": 93.03}
{"substance smiles": "CC(C)(C)OC(=O)Nc1ccn([C@@H]2O[C@H](COC(=O)Cn3cnc([N+](=O)[O-])c3)[C@@H](O)C2(F)F)c(=O)n1", "unit of measurement": "%", "Day 8 (TGI %)": 79.22}
{"substance smiles": "O=C(Nc1ccn([C@@H]2O[C@H](CO)[C@@H](O)C2(F)F)c(=O)n1)OCc1ccccc1", "unit of measurement": "%", "Day 8 (TGI %)": 91.66}
{"substance smiles": "CCCCOC(=O)Nc1nc(=O)n([C@@H]2O[C@H](CO)[C@@H](O)C2(F)F)cc1Br", "unit of measurement": "%", "Day 8 (TGI %)": 78.47}

Would you mind telling me what Day 8 (TGI %) value was observed for O=C(Nc1nc(=O)n([C@@H]2O[C@H](CO)[C@@H](O)C2(F)F)cc1Br)OCc1ccccc1 ?
82.62

###

system: HCT-116 colon cancer xenografts; assay: Tumor growth inhibition of HCT-116 colon cancer xenografts in tumor-bearing nude mice (tumor volume, TGI %, RTV, T/C %); format: in vivo, Balb/c Nude mice; conditions: Day 9; G10-G16 groups; single IP 400 mg/kg
fulfilled means recorded Day 9 (TGI %) is 40% or above; not fulfilled means it is below 40%.

{"compound": "CCCCOC(=O)Nc1nc(=O)n([C@@H]2O[C@H](COC(=O)Cn3cnc([N+](=O)[O-])c3)C(O)C2(F)F)cc1I (stereo partly drawn)", "classification": "fulfilled"}
{"compound": "O=C(COc1nc(Cl)c(Cl)cc1Cl)OCC1OC(n2cc(-c3cn(Cc4ccccc4)nn3)c(NC(=O)OCc3ccc([N+](=O)[O-])cc3)nc2=O)C(F)(F)C1O (stereo not drawn)", "classification": "fulfilled"}
{"compound": "CCCCOC(=O)Nc1nc(=O)n(C2OC(COC(=O)COc3nc(Cl)c(Cl)cc3Cl)C(O)C2(F)F)cc1-c1cn(Cc2ccccc2)nn1 (stereo not drawn)", "classification": "fulfilled"}
{"compound": "CCCCOC(=O)Nc1nc(=O)n(C2OC(COC(=O)COc3nc(Cl)c(Cl)cc3Cl)C(O)C2(F)F)cc1I (stereo not drawn)", "classification": "not fulfilled"}
{"compound": "CCCCOC(=O)Nc1nc(=O)n(C2OC(COC(=O)COc3nc(Cl)c(Cl)cc3Cl)C(O)C2(F)F)cc1Br (stereo not drawn)", "classification": "not fulfilled"}

# evaluate next
Reported Day 9 (TGI %) at or above 40%? O=C(COc1nc(Cl)c(Cl)cc1Cl)OC[C@H]1O[C@@H](n2cc(Br)c(NC(=O)OCc3ccccc3)nc2=O)C(F)(F)C1O (stereo partly drawn)
not fulfilled

###

system: HCT-116 colon cancer xenografts; experiment: Tumor growth inhibition of HCT-116 colon cancer xenografts in tumor-bearing nude mice (tumor volume, TGI %, RTV, T/C %); type: in vivo, Balb/c Nude mice; settings: Day 1; G10-G16 groups; single IP 400 mg/kg
reported endpoint: Day 1 (TGI %)
Write it as a number; the unit % goes unstated.

// below: answered molecules
{"molecule": "CCCCOC(=O)Nc1nc(=O)n(C2OC(COC(=O)COc3nc(Cl)c(Cl)cc3Cl)C(O)C2(F)F)cc1I (stereo not drawn)", "Day 1 (TGI %)": 58.06}
{"molecule": "CCCCOC(=O)Nc1nc(=O)n([C@@H]2O[C@H](COC(=O)Cn3cnc([N+](=O)[O-])c3)C(O)C2(F)F)cc1I (stereo partly drawn)", "Day 1 (TGI %)": 62.26}

Under HCT-116 colon cancer xenografts: Day 1 (TGI %) value of CCCCOC(=O)Nc1nc(=O)n(C2OC(COC(=O)COc3nc(Cl)c(Cl)cc3Cl)C(O)C2(F)F)cc1-c1cn(Cc2ccccc2)nn1 (stereo not drawn) ?
35.29

Under HCT-116 colon cancer xenografts: Day 1 (TGI %) value of O=C(COc1nc(Cl)c(Cl)cc1Cl)OCC1OC(n2cc(-c3cn(Cc4ccccc4)nn3)c(NC(=O)OCc3ccc([N+](=O)[O-])cc3)nc2=O)C(F)(F)C1O (stereo not drawn) ?
77.92

Under HCT-116 colon cancer xenografts: Day 1 (TGI %) value of O=C(COc1nc(Cl)c(Cl)cc1Cl)OC[C@H]1O[C@@H](n2cc(Br)c(NC(=O)OCc3ccccc3)nc2=O)C(F)(F)C1O (stereo partly drawn) ?
50.51

Under HCT-116 colon cancer xenografts: Day 1 (TGI %) value of CCCCOC(=O)Nc1nc(=O)n(C2OC(COC(=O)COc3nc(Cl)c(Cl)cc3Cl)C(O)C2(F)F)cc1Br (stereo not drawn) ?
63.52

###

Details: Day 14; G10-G16 groups; single IP 400 mg/kg; Mean±SEM
Method: To determine the growth inhibition effect and toxicity of the cytidine derivative samples of the present invention on the transplanted tumor of nude mice bearing colon cancer HCT-116. […] All clinical symptoms of each animal should be recorded at the beginning of the test and during the test. […] The data were expressed as Mean±SEM unless specially provided; Non-pairing T test was performed for the data between the two groups. […]
// reported Weight of mice, Day 14 for each item listed
Write it as a number; the unit g goes unstated.

Would you mind telling me what Weight of mice, Day 14 value was observed for CCCCOC(=O)Nc1nc(=O)n([C@@H]2O[C@H](COC(=O)Cn3cnc([N+](=O)[O-])c3)C(O)C2(F)F)cc1I (stereo partly drawn) ?
20.38

Would you mind telling me what Weight of mice, Day 14 value was observed for CCCCOC(=O)Nc1nc(=O)n(C2OC(COC(=O)COc3nc(Cl)c(Cl)cc3Cl)C(O)C2(F)F)cc1I (stereo not drawn) ?
20.10

Would you mind telling me what Weight of mice, Day 14 value was observed for CCCCOC(=O)Nc1nc(=O)n(C2OC(COC(=O)COc3nc(Cl)c(Cl)cc3Cl)C(O)C2(F)F)cc1-c1cn(Cc2ccccc2)nn1 (stereo not drawn) ?
22.1
